system: BT474 and HN5 tumor cell lines; assay: Methylene blue growth inhibition assay (cellular Method A); format: cell-based, Human; settings: Homo sapiens, BT-474, 72 h, 3 days, read-out: Activity (Method): growth inhibition IC50 class
We begin with a simple list: items and their reported IC50.

structure as smiles | system name | IC50
O=C(NC1CC1)c1ccc(Nc2nccc(-c3c(-c4cccc(NC(=O)c5c(F)cccc5F)c4)nn4ccccc34)n2)cc1 | BT474 and HN5 tumor cell lines | < 100 nM
O=C(Nc1cccc(-c2nn3ccccc3c2-c2ccnc(Nc3ccc4c(c3)CNCC4)n2)c1)c1c(F)cccc1F | BT474 and HN5 tumor cell lines | < 100 nM
NC(=O)c1ccc(Nc2nccc(-c3c(-c4cccc(NC(=O)c5c(F)cccc5F)c4)nn4ccccc34)n2)cc1 | BT474 and HN5 tumor cell lines | < 100 nM
O=C(Nc1ccccc1)Nc1cccc(-c2nn3ccccc3c2-c2ccnc(Nc3ccc4c(c3)OCCO4)n2)c1 | BT474 and HN5 tumor cell lines | > 1000 nM

----------
system: BT474 and HN5 tumor cell lines; experiment: Methylene blue growth inhibition assay (cellular Method A); assay type: cell-based, Human; conditions: Homo sapiens, BT-474, 72 h, 3 days, read-out: Activity (Method): growth inhibition IC50 class

structure as smiles | IC50
O=C(Nc1cccc(-c2nn3ccccc3c2-c2ccnc(Nc3ccc4nn[nH]c4c3)n2)c1)c1c(F)cccc1F | < 100 nM
O=C(Nc1cccc(-c2nn3ccccc3c2-c2ccnc(Nc3ccc(Cl)c(C(F)(F)F)c3)n2)c1)c1c(F)cccc1F | 100 to 1000 nM
CC(=O)Nc1cccc(Nc2nccc(-c3c(-c4cccc(NC(=O)c5c(F)cccc5F)c4)nn4ccccc34)n2)c1 | < 100 nM
O=C(Nc1cccc(-c2nn3ccccc3c2-c2ccnc(Nc3cccc(F)c3)n2)c1)c1cc(F)ccc1F | 100 to 1000 nM
COc1ccc(Nc2nccc(-c3c(-c4cccc(NC(=O)c5cc(F)ccc5F)c4)nn4ccccc34)n2)cc1F | > 1000 nM
N#Cc1cccc(Nc2nccc(-c3c(-c4cccc(NC(=O)c5c(F)cccc5F)c4)nn4ccccc34)n2)c1 | < 100 nM
CN(C)CCCNc1ccc(Nc2nccc(-c3c(-c4cccc(NC(=O)c5c(F)cccc5F)c4)nn4ccccc34)n2)cc1F | < 100 nM

----------
We begin with a simple list: items and their reported pIC50.
Tested on: BT474 and HN5 tumor cell lines
Test: Methylene blue growth inhibition assay (cellular Method A)
Format: cell-based, Human
Settings: Homo sapiens, BT-474, 72 h, 3 days, read-out: Activity (Method): growth inhibition IC50 class
Protocol: Human breast (BT474) and head and neck (HN5) were cultured in low glucose DMEM (Life Technologies 12320-032) containing 10% fetal bovine serum (FBS). Human colon tumor cells (Colo205) were cultured in DMEM (Invitrogen, 10564) containing 10% FBS. […] Cells were harvested using trypsin/EDTA, counted using a haemocytometer, and plated in 100 microliters of the appropriate media, at the following densities, in a 96-well tissue culture plate (Falcon 3075): BT474 10,000 cells/well, HN5 3,000 cells/well. […]
pIC50: −log10 of the molar value.
metric name: pIC50

compound | result
O=C(Nc1cccc(-c2nn3ccccc3c2-c2ccnc(Nc3ccccc3)n2)c1)c1cccs1 [Example 139] | 6.00 to 7.00
O=C(Nc1cccc(-c2nn3ccccc3c2-c2ccnc(Nc3ccc4c(c3)CNCC4)n2)c1)c1ccccc1 [Example 62] | > 7.00
O=C(c1ccccc1)c1ccc(Nc2nccc(-c3c(-c4cccc(NC(=O)c5c(F)cccc5F)c4)nn4ccccc34)n2)cc1 [Example 98] | 6.00 to 7.00
NC1CCc2ccc(Nc3nccc(-c4c(-c5cccc(NC(=O)c6c(F)cccc6F)c5)nn5ccccc45)n3)cc2C1 (stereo not shown) [Example 174] | > 7.00
COc1ccc(Nc2nccc(-c3c(-c4cccc(NC(=O)c5c(F)cccc5F)c4)nn4c(C)cccc34)n2)cc1F [Example 157] | 6.00 to 7.00
CN(C)CCCOc1ccc(Nc2nccc(-c3c(-c4cccc(NC(=O)c5c(F)cccc5F)c4)nn4ccccc34)n2)cc1Cl [Example 126] | > 7.00
CN1CCc2ccc(Nc3nccc(-c4c(-c5cccc(NC(=O)c6cc(F)ccc6F)c5)nn5ccccc45)n3)cc2C1 [Example 189] | > 7.00
